%Inh overview
# System: TYRO3
# run.parameters: concentration: 1 μM, replicates: in singlicate; n = 1;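 note: KINOMEscan kinase panel screen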
Report the value in % with no unit label.

Recall the recorded %Inh for Clc1ccc(-c2nn3ncccc3c2-c2ccnc(Nc3ccc4c(c3)OCCO4)n2)cc1 [GW829116] with TYRO3 and state it.
0

###

# System: NEK11
# run.parameters: concentration: 1 μM, replicates: in singlicate; n = 1
Response key: Condition met means %Inh >= 2%; Condition not met means %Inh < 2%.

mol.smiles | class
O=C(Nc1cccc(-c2nn3ncccc3c2-c2ccnc(Nc3ccccc3)n2)c1)c1c(F)cccc1F | Condition not met
Oc1cc(Nc2ccnc3cc(I)ccc23)ccc1F | Condition not met
Cn1cc(-c2ccc3c(c2)CCN3C(=O)Cc2cccc(F)c2)c2c(N)ncnc21 | Condition met
COc1ccc(-c2coc3ccc(-c4nnc(SCc5ccc(OC)c(C(F)(F)F)c5)o4)cc23)cc1 | Condition not met
CC(C)c1nc(-c2cccc(NS(=O)(=O)c3c(F)cccc3F)c2F)c(-c2ccnc(Nc3ccc(N4CCOCC4)nc3)n2)s1 | Condition met

Item `Nc1n[nH]c2cnc(-c3ccccc3)cc12` with %Inh of 2% or above?
Condition met

Next up: `Nc1ncc(-c2cccnc2)c2scc(-c3ccc4c(c3)CCN4C(=O)Cc3ccccc3)c12`
Condition met
